# experimental_target: panel of 203 kinases (Homo sapiens, UniProt Q9P2K8, S808G)
# Construct: purchased DiscoverX (KINOMEscan)
# Sequence (Q9P2K8 whole entry S808G): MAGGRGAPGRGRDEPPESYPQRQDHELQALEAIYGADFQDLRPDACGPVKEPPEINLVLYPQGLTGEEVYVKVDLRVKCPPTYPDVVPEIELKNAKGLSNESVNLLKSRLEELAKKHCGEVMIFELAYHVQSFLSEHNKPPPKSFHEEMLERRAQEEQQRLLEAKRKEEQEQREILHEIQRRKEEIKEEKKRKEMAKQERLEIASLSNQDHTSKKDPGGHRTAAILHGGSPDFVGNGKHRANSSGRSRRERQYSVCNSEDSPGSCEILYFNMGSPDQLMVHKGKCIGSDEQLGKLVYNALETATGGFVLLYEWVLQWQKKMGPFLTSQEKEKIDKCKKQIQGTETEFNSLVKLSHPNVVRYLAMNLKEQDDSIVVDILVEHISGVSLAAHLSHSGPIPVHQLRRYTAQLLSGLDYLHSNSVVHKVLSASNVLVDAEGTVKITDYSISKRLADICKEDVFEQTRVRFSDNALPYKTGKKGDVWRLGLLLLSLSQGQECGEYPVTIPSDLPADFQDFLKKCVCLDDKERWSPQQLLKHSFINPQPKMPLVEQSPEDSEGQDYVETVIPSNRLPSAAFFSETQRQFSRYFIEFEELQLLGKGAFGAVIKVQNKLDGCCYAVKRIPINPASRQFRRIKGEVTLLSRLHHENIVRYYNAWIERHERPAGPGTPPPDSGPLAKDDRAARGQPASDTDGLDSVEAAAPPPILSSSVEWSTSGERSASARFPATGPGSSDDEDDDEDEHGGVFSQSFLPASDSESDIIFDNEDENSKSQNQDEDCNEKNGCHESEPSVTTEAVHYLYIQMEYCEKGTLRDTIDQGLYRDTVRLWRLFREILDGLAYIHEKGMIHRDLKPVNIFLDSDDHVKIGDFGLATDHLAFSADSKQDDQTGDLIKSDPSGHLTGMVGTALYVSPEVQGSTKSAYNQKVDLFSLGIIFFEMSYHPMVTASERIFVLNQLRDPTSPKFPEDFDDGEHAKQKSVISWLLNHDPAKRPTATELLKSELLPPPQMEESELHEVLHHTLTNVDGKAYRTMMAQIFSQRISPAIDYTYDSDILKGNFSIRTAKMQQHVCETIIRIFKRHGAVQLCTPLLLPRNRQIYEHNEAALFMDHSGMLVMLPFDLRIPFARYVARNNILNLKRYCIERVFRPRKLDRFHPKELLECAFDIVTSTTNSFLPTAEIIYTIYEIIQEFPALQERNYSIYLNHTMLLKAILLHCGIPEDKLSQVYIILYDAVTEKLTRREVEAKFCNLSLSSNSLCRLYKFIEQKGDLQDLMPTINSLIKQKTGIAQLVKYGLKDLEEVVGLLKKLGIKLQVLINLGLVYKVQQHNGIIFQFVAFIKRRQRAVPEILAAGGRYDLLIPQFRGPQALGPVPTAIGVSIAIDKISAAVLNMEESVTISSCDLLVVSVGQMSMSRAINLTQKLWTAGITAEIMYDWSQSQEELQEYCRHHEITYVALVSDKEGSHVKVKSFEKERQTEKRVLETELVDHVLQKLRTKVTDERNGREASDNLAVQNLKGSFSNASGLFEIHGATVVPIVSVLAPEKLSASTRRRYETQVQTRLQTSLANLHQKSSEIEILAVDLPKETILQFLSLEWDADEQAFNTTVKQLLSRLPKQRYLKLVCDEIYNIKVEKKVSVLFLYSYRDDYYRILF
# assay_summary: KINOMEscan competitive binding, whole panel
# measurement_setup: 10 µM, n=1; kinase GCN2(Kin.Dom.2,S808G); read-out: Percent inhibition GCN2(Kin.Dom.2,S808G)
Assign inhibition at 10 µM to each entry below.
The answer is to be given in %; state only the numeric part.

*Q* Need inhibition at 10 µM, item Cc1ccc(O)cc1Nc1ccnc(Nc2cccc(C(N)=O)c2)n1
*A* 0

*Q* Need inhibition at 10 µM, item COc1ccc(Nc2nccc(-c3cnn4ncccc34)n2)cc1
*A* 98.2

*Q* Need inhibition at 10 µM, item Cc1ccc(O)cc1N(C)c1ccnc(Nc2cccc(S(N)(=O)=O)c2)n1
*A* 0

*Q* Need inhibition at 10 µM, item C[C@@H](Oc1cc(-c2cnc3ccccn23)sc1C(N)=O)c1ccccc1Cl
*A* 86.6

*Q* Need inhibition at 10 µM, item Clc1ccc(Nc2ncc(-c3ccccc3)s2)cc1
*A* 0

*Q* Need inhibition at 10 µM, item c1ccc(COc2cccc(-c3ccnc4[nH]ccc34)c2)cc1
*A* 0

*Q* Need inhibition at 10 µM, item COc1cc(Nc2nccc(-c3sc(N)nc3-c3cccc(NC(=O)c4c(F)cccc4F)c3)n2)cc(OC)c1OC
*A* 99.9

*Q* Need inhibition at 10 µM, item Nc1ncc2c(-c3ccncc3)c[nH]c2n1
*A* 88.5

*Q* Need inhibition at 10 µM, item Fc1cccc(COc2ccc(Nc3ncnc4c3CN(CCN3CCOCC3)CC4)cc2Cl)c1
*A* 0

*Q* Need inhibition at 10 µM, item CN1CCN(c2ccc(Nc3nccc(-c4cnn5ncccc45)n3)cc2C#N)CC1
*A* 99.7

The measurements presented in this section are drawn from paper PMC9927415.
